The reported numbers originate from PubChem BioAssay AID624483.

assay: compound fluorescence in toxin protease inhibitor counterscreen, primary screen, artefact control for toxin protease inhibitor project, biochemical, multiplex microsphere, HTS (AID 624483); details: compound autofluorescence counterscreen, microsphere flow cytometry; stronger effect = higher value
Hit rate of the full screen: of about 360,000 compounds, about 11,000 (3.1%) were called active. About 2% were inconclusive and are not listed. What follows is part of a selection rich in actives, with near analogues and random picks from the rest.
measured endpoint: fluorescence intensity

| compound | measured endpoint | value measured |
| --- | --- | --- |
| C/C(COc1ccccc1)=N\NC(=O)c1nnn(-c2nonc2N)c1-c1ccc(C)cc1 | fluorescence intensity | 2830 |
| CSc1nc(-c2ccco2)nn1C(=O)CCc1ccccc1 | fluorescence intensity | 22700 |
| O=C(NCc1cccnc1)c1ccc2nc([C@@H]3O[C@H](CO)[C@H](O)[C@H](O)[C@H]3O)[nH]c2c1 | fluorescence intensity | 3590 |
| Cc1ccc2c(C)c(C(=O)N(C)Cc3ccncn3)oc2c1C | fluorescence intensity | 5730 |
| CC(C)C[C@H]1CNC(=O)C(=O)N1C[C@@H]1CCCN1C[C@H](Cc1ccccc1)N1C[C@H](CC(C)C)N(CC2CCCCCC2)C(=O)C1=O | fluorescence intensity | 5660 |
| OC(c1nnc(-c2ccccc2)o1)c1cccs1 (stereo unspecified) | fluorescence intensity | 4160 |
| Cc1ccccc1C1=NC(C(F)(F)F)(C(F)(F)F)c2c(n(-c3ccc(F)cc3)c(=O)[nH]c2=O)N1 | fluorescence intensity | 10500 |
| Cc1scc(C(=O)NNC(=S)NCC(C)C)c1C | fluorescence intensity | 2420 |
| CSc1nc(-c2ccco2)nn1C(=O)c1ccccc1Cl | fluorescence intensity | 4950 |
| CN(C)C1CN(Cc2cn(Cc3ccccc3)nn2)S(=O)(=O)C1 (stereo unspecified) | fluorescence intensity | 4320 |
| Cc1occc1C(=O)NNC(=S)NCC(C)C | fluorescence intensity | 16400 |
| O=C(CC[C@H]1O[C@@H](n2ccc(=O)[nH]c2=O)[C@H](O)[C@@H]1O)N[C@H](Cc1ccccc1)C(=O)NCCCN1CCCC1=O | fluorescence intensity | 4310 |
| CC(C)CNC(=S)NNC(=O)c1nn(C)cc1Cl | fluorescence intensity | 8820 |
| Brc1ccc(-c2nnc(-c3ccccc3)o2)o1 | fluorescence intensity | 24200 |
| CCN(CC)C(=O)c1ccc(NC(=O)c2sccc2-c2ccccc2)cc1 | fluorescence intensity | 4580 |
| CC(=O)Nc1ccc(S(=O)(=O)NC2(C(F)(F)F)C(=O)Nc3c2c(=O)[nH]c(=O)n3Cc2ccccc2)cc1 (stereo unspecified) | fluorescence intensity | 2630 |
| Brc1ccc(-c2noc(-c3ccccc3)n2)o1 | fluorescence intensity | 4610 |
| O=C(Nc1ccc(Cl)cc1)c1cc2nc(C3CC3)cc(C(F)(F)F)n2n1 | fluorescence intensity | 11300 |
| NC(=O)C1CCN(CC(O)CSc2ccc(F)cc2)CC1 (stereo unspecified) | fluorescence intensity | 3520 |
| COC(=O)c1sccc1NC(=O)CC1C(=O)NCCN1C(=O)Nc1ccc(F)cc1F (stereo unspecified) | fluorescence intensity | 6320 |
| CCN(CC(=O)Nc1ccc(OC)cc1)C(=O)c1ccc(Cl)c(S(=O)(=O)N2CCCC2)c1 | fluorescence intensity | 3470 |

====

test: compound fluorescence in toxin protease inhibitor counterscreen, primary screen, artefact control for toxin protease inhibitor project, biochemical, multiplex microsphere, HTS (AID 624483); settings: compound autofluorescence counterscreen, microsphere flow cytometry; stronger effect = higher value
The whole screen tested about 360,000 compounds, of which about 11,000 (3.1%) were called active. About 2% were inconclusive and are not listed. The list comes from a sample in which actives are over-represented; it also holds close analogues and randomly drawn compounds.
Recorded measurements of fluorescence intensity, one per entry

| compound | fluorescence intensity |
| --- | --- |
| C=CCn1c(COc2ccc(F)cc2)nnc1SCC(=O)Nc1cccc(S(N)(=O)=O)c1 | 4780 |
| O=C(CCl)Nc1ccc(Sc2ccc(NC(=O)CCl)cc2)cc1 | 4330 |
| CCCCNc1nc2c(c(=O)n(C)c(=O)n2C)n1Cc1cccc(OC)c1 | 4560 |
| Cc1ccc(Sc2ccc(NC(=O)c3ccc(F)cc3)cc2C#N)cc1 | 4940 |
| COC(=O)c1ccc(CSc2nncn2N)cc1 | 4020 |
| O=C(Nc1ccc2c(c1)CCC2)c1ccc(Br)s1 | 4300 |
| CCCCOc1ccc(CSC(=N)N)cc1[N+](=O)[O-] | 2600 |
| Cc1ccc(NC(=O)c2ccc(S(=O)(=O)NCC3CCCO3)cc2)cc1C (stereo not given) | 4660 |
| CC(C)(CCl)C(=O)Nc1ccc(Sc2ccc(F)cc2)cc1 | 20700 |
| COc1ccc(NC(=O)NCCN2CCN(c3ccc(C)cc3)CC2)c(Cl)c1 | 3770 |
| O=C(COC(=O)/C=C/c1ccc(OC(F)F)cc1)NC1CCCCC1 | 5950 |
| COc1ccc(N2CCN(CCNC(=O)Nc3cc(Cl)ccc3Cl)CC2)cc1 | 3500 |
| CCOC(=O)N1CCN(C(=O)c2cn(C)c3ccc(S(=O)(=O)N4CCCC4)cc3c2=O)CC1 | 19900 |
| CCOC(=O)N1CCN(C(=O)c2cn(C)c3ccc(S(=O)(=O)N(CC)CC)cc3c2=O)CC1 | 2950 |
| Cc1ccc(Cc2c(-c3ccco3)nc3ccc(Cl)cn23)cc1 | 5920 |
| O=C(Nc1ccc(Cl)cc1)c1csc([C@H]2C[C@H](O)[C@@H](CO)O2)n1 | 2790 |
| C[C@@H]1CN([C@@H](C)CO)C(=O)c2c(c3ccccc3n2C)-c2ccccc2CO[C@H]1CN(C)C(=O)C1CC1 | 3570 |
| CC1(C(=O)O)CCCN(C(=O)/C=C/c2ccccc2)C1 (stereo not given) | 3760 |
| Nc1ccccc1Sc1cc(Cl)nnc1Cl | 3840 |
| COc1ccc(CNC2CCCCC2)cc1 | 22800 |
| O=C(NC1CCCC1)c1ccc(Br)s1 | 17100 |
| O=C(CN1C(=O)NC(Cc2ccccc2)(Cc2ccccc2)C1=O)NCC1CCCCC1 | 20200 |
| CCOC(=O)C1C(=O)NCC1c1ccccc1 (stereo not given) | 9370 |
| Cn1nc(C(F)(F)F)c(C(=O)Nc2cccc(C(F)(F)F)c2)c1SCc1ccc(Cl)cc1 | 18600 |
| CS(=O)(=O)Nc1cccc(C2=NN(S(=O)(=O)c3ccccc3)C(c3cccs3)C2)c1 (stereo not given) | 8170 |
| COc1ccc(CNc2nc(NCc3ccc(OC)cc3)c3ncn(C4CCCC4)c3n2)cc1 | 4490 |
| O=C(CC1CCCCC1)NCc1ccccc1 | 3670 |
| COc1ccc(C)cc1NC(=O)c1ccc(-c2ccc(C(C)=O)cc2)o1 | 3980 |
| COC(=O)C1C(=O)NCC1c1ccc(OC)cc1 (stereo not given) | 17100 |
| CS(=O)(=O)N(CC(=O)N1CCN(c2cccc(Cl)c2)CC1)c1ccccc1 | 9910 |
| CCCCNC(=O)CN1C(=O)NC(Cc2ccccc2)(Cc2ccccc2)C1=O | 5690 |
| COc1ccc(-c2cc3nc(NCCOc4ccccc4)ccn3n2)cc1 | 4480 |
| CCS(=O)(=O)Nc1ccc(C2=NN(S(=O)(=O)c3ccc(F)cc3)C(c3ccco3)C2)cc1 (stereo not given) | 17100 |
| COc1ccc(/C(O)=C2/C(=O)C(=O)N(CCCN(C)C)C2c2ccccc2)cc1OC (stereo not given) | 21200 |
| CS(=O)(=O)N(CC(=O)N1CCN(Cc2ccccc2)CC1)c1ccc2c(c1)OCCO2 | 23300 |
| CC1(C(=O)NS(=O)(=O)c2ccccc2)CCN1C(=O)C1CCCCC1 (stereo not given) | 3660 |
| CN(C)C(=O)c1cccc(-c2cnc3sc(NCc4ccc5c(c4)OCO5)nn23)c1 | 3900 |
| Cc1nn(-c2ccccc2)c2[nH]c(C(F)(F)F)cc(=O)c12 | 4600 |
| C=CCn1c(COc2cccc3cccnc23)nnc1SCC(=O)OC | 21200 |
| CCOCCn1c(C(C)C)nc2ccccc21 | 3860 |
| COC(=O)c1ccccc1Sc1c(/C=N/OCc2ccc(Cl)cc2)c(C(F)(F)F)nn1C | 2910 |
| COC(=O)C1C(=O)NCC1c1ccc(C)cc1 (stereo not given) | 15900 |
| O=C(NC1CCCCCCC1)c1cccs1 | 3700 |
| CCOC(=O)c1cc2cc(C)ccc2[nH]1 | 4370 |
| CN(CC(=O)Nc1c(Cl)cccc1Cl)C(=O)CNC(=O)C1CCCCC1 | 4800 |

====

assay: compound fluorescence in toxin protease inhibitor counterscreen, primary screen, artefact control for toxin protease inhibitor project, biochemical, multiplex microsphere, HTS (AID 624483); conditions: compound autofluorescence counterscreen, microsphere flow cytometry; stronger effect = higher value
Screen size: about 360,000 compounds; about 11,000 (3.1%) were called active. Another 2% or so got no clear call; they are omitted. This excerpt belongs to a sample that is enriched for actives.
Recorded measurements of fluorescence intensity, one per entry
measured endpoint: fluorescence intensity

| molecule | value measured |
| --- | --- |
| CCOC(=O)Nc1ccc2c(c1)N(C(=O)CN1CCN3CCCC3C1)c1ccccc1CC2 (stereo not given) | 18500 |
| COc1ccc(CN(Cc2ccco2)S(=O)(=O)c2ccc(S(=O)(=O)N3CCCC3)cc2)cc1 | 23600 |
| CCOc1ccc(C(=O)NC2CCN(CC(=O)NCc3cccs3)CC2)cc1 | 4320 |
| CCOC(=O)Nc1ccc2c(c1)N(C(=O)CCN1CCN(CCO)CC1)c1ccccc1CC2 | 5290 |
| C=CCNC(=O)CC12CC3CC(C1)CC(CC(=O)NCC=C)(C3)C2 | 4730 |
| CCOc1ccc(CN(Cc2ccco2)S(=O)(=O)c2ccc(-n3cnnn3)c(OC)c2)cc1 | 11600 |
| COc1ccc(S(=O)(=O)NCc2ccc(C(=O)N(C)Cc3ccco3)cc2)cc1 | 10900 |
| CCOc1cccc(-c2nnc(SCC(=O)NC3CC3)n2C)c1 | 5480 |
| COc1cc(C2C3C(=O)N(c4ccccc4)C(=O)C3ON2c2ccccc2)ccc1O (stereo not given) | 3690 |
| COc1ccc(S(=O)(=O)NC(=O)C2(C)CCN2C(=O)COc2ccc(Cl)cc2)cc1 (stereo not given) | 3840 |
